Can you tell me koff for the items I'm about to list?
- assay system: T1, recombinant His-tagged human TIGIT-ECD protein (human, UniProt Q495A1 22-141)
- T1 construct: extracellular domain; The ELISA text only says His-tagged human TIGIT; also called His-tagged TIGIT; human TIGIT protein; not shown: His tag
- T1 sequence (looked up): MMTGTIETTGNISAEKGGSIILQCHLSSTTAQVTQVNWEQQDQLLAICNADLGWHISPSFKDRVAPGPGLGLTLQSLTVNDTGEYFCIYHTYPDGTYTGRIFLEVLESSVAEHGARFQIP
- protocol text: SPR (Biacore T200), antibody captured, His-tagged TIGIT-ECD injected
Give bare numbers, in s⁻¹.

Worked examples follow.
>  <binder>
350D10 (antibody, human IgG1, V domains shown, Mouse hybridoma clone; also called 350D10-chimeric) VH: EVKLVESGGALVQPGGSLKLSCAASGFTFSDYYMYWVRQTPEKRLEWVASITKGGGSTYYPDTLKGRFTISRDNAKNTLYLQMSRLKSEDTDMYYCARQSSYDFVMDYWGQGTSVTVSS VL: DIVMTQSHKFMSTSVGDRVTITCKASQDVDTAVAWYQQKPGQSPKLLIYWASARHTGVPDRFTGSGSGTDFTLTISNVQSEDLADYFCQQYSNYPLTFGVGTKLELK

>  <observed>
0.000154

$$$$
>  <binder>
222H4 (antibody, human IgG1, V domains shown, Mouse hybridoma clone) VH: EVQLQQSGPELVKPGASVKISCKTSGYTFSDYTLHWVKQSHGKNLEWIGGFNPNNGGTNYNQKFKVKASLTIDKSSNTVYMELRSLSSEDSAVYYCARNWAFDYWGQGTTLTVSS VL: DIVMTQSHKIMSTSLGDRVNITCKASQHVSTAVAWYQQRPGQSPRLLIYSASYRHTGVPDRFTGSGSGTDITFTISSVQTEDLAVYYCQQYYTTPWTFGGGTKLEIK

>  <observed>
0.000453

$$$$
>  <binder>
167F7 (antibody, human IgG1, V domains shown, Mouse hybridoma clone) VH: EFQLQQSGPELVKPGASVKISCRASGYSFTAYSMNWVQQTNGKSLEWIGVINPKFGTINYNQKFKDKATLTVDHSSSAAYMQLNSLTSEDSAVYFCARNGNFAWYFDVWGTGTTVTVSS VL: DIQMTQSPASLSASVGETVTITCRASESIFSYLAWYQQKQGKSPQLLAYNAETLAEGVPSRFSGSGSGTQFSLKINSLQSEDFGIYYCQHHFGVPWTFGGGTKLEIK

>  <observed>
0.000107

$$$$

Continue with the binder presented below.
Form: binder = 90D9 (antibody, V domains shown, Mouse hybridoma clone; also called 90D9-chimeric) VH: EVQLQQSGPELVKPGASVKISCKTSGYTFTENTMHWVKQSHGKSLEWIGGINPNQGGNRNNQKFKGKATLTVDKSSSTAYMELRSLTSEDSAVYYCARSGLRDYAMDYWGQGTSVTVSS VL: DIVMTQSHKFMSTSVGDRVSITCKASQHVSTAVVWYQQKPGQSPKLLIYSPSYRYTGVPDRFTGSGSGTDFTFTISSVQAEDLAVYYCQQHYSTPWTFGGGTKLEIK ; koff = 0.000156
